These data points were gathered from the RNAGym collection of RNA variant scans (doi:10.1093/molbev/msab373).

B1: Azoarcus group I ribozyme (parent)
chain: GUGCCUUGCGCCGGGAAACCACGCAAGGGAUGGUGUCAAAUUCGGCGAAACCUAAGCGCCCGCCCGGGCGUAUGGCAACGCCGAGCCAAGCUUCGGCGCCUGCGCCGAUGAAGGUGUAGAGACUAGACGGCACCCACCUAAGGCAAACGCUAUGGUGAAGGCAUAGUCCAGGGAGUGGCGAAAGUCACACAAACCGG

Variants of: B1
Assay: reverse-splicing fitness (ratio to wild type); higher = more active; in vitro selection; Mg2+ level not given
reported-metric: reverse-splicing fitness

Recorded results for 2 variants are shown here.
variant_description="C82A A120G A145G C150A U176G" measured_result=0.00779
variant_description="C82G A111C A120C A145U C150U C169G" measured_result=0.00788

Now look at this entry.
Supply measured reverse-splicing fitness of C82U A111G A120C A145G C169G in your reply.
0.00801
